test-system: glucagon receptor (UniProt P47871 26-477, limits assumed)
Sequence (P47871 26-477 limits assumed): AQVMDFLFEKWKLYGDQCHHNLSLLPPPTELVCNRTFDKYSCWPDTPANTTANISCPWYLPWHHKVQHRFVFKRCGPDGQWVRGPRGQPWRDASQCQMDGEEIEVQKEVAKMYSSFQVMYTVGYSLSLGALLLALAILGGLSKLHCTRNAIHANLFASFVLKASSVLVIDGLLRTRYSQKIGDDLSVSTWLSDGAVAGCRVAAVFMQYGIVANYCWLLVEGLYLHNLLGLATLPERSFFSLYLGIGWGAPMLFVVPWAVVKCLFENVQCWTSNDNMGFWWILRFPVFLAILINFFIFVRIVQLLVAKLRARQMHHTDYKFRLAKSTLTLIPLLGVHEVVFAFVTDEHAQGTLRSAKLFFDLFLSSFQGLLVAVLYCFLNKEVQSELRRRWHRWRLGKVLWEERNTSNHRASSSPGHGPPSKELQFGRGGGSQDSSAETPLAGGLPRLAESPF
protocol-description: cell-based or functional assay
Bridge positions count the residues as written; N and C are the ends. Square brackets hold non-standard residues; d marks the D form. Ends that are not written are not given here. PEG = not defined here; Aib = CC(C)(N)C(=O)O
reported-endpoint: % Potency Relative to Native (%)

Look over these answered cases.
INSERT INTO measurements (binder, observed_result) VALUES
  ('H[Aib]QGTFTSDYSKYLDEQAAKEFICWLMNT-NH2 [Chimera AIB2, Cys24 (SEQ ID NO: 486), parent w/o PEG]', 15.4),
  ('H[Aib]QGTFTSDYSKYLDEQAAKEFIC(PEG)WLMNT-NH2 (lactam 16-20; not fully specified; reading uncertain) [Chimera AIB2, Cys24 Lactam (SEQ ID NO: 504), parent w/PEG]', 9.2);

[a] H[Aib]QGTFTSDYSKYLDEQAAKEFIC(PEG)WLMNT-NH2 (not fully specified; reading uncertain) [Chimera AIB2, Cys24 (SEQ ID NO: 486), parent w/PEG]
[b] H[Aib]QGTFTSDYSKYLDEQAAKEFICWLMNT-NH2 (lactam 16-20) [Chimera AIB2, Cys24 Lactam (SEQ ID NO: 504), parent w/o PEG]
Could you please tell me which of these two has the higher % Potency Relative to Native: a or b ? Reply briefly: the label of your chosen item.
b
